# test-target: protein kinase C
# test-details: PKC Activity Inhibition Assay
measured-quantity: IC50 (nM)

(P) O=C1NC(=O)c2c1c1c(c3c2-c2ccccc2C3)Cc2ccccc2-1
(Q) O=C1NCc2c1c1c(c3c2-c2ccccc2C3)Cc2ccccc2-1
Hi there! Just curious which has the higher IC50 between P and Q . # respond with the chosen item's label
Q
(Q: 2000 nM, P: 650 nM)
